- System: Histamine H4 receptor (Homo sapiens)
- Assay Summary: Antagonist activity at human H4 receptor assessed as inhibition of imetit-induced GTPgamma[35S] binding after 30 mins by microbeta scintillation counting method
Outcome Measure: pKi
Scale: negative log10 of molar concentration, which is what pKi denotes.

Summary for this compound, `O=C(NCCCCN1CCN(c2cccc(Cl)c2Cl)CC1)c1cncc(Br)c1` : pKi is 5.51

----------
Reported values of pKi for individual entries
- System: Histamine H3 receptor (Homo sapiens)
- Sequence (Q9Y5N1 whole entry): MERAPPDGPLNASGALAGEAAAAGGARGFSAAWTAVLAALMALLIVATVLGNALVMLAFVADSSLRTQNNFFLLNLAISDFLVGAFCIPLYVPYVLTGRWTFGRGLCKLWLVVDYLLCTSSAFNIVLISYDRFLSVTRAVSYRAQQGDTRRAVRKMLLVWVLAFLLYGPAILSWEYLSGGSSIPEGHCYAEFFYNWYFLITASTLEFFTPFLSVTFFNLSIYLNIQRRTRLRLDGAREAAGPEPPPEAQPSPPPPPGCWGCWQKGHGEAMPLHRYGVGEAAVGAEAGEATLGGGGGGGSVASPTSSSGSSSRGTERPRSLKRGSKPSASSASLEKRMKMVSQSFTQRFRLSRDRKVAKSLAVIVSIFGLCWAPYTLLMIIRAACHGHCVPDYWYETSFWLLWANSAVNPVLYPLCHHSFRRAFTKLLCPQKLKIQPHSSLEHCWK
Keep it numeric: pKi is minus log10 of the concentration in mol/L.

Reported pKi of Ic1ccc(C(OCCCc2c[nH]cn2)c2ccccc2)cc1 (stereo not given) : 7.85

Lab note: `Nc1ccc(NCCc2ccc(OCCCN3CCCCC3)cc2)nc1` gave pKi of 8.32

pKi for `O=C(CCCc1ccc(I)cc1)OCCCc1cnc[nH]1` is 7.39

Moving on to another molecule below.
pKi reading for `c1ccc(-c2ccc(CCCOCCCc3c[nH]cn3)cc2)cc1` : 6.93

----------
- System: Histamine H4 receptor (Homo sapiens)
- Assay Summary: Antagonist activity at H4 receptor in human SH-SY5Y cells assessed as inhibition of imetit-induced GTPgamma[35S] binding after 30 mins by microbeta scintillation counting method
- Format: cell-based
Outcome Measure: Ki
Please answer in the form of a number followed by its unit of measurement.

Noted for Ic1ccc(C(OCCCc2c[nH]cn2)c2ccccc2)cc1 (stereo unspecified) : its Ki reads 3 nM

Others:
The compound Brc1ccc(C(OCCCc2c[nH]cn2)c2ccc3ccccc3c2)cc1 (stereo unspecified) showed Ki equal to 4 nM

What the record says about O=C(CCNC(=O)C(Cc1ccccc1)Cn1ccnc1)OCc1ccccc1 (stereo unspecified) : Ki is 174 nM

Sure, the documented Ki for `FC(F)(F)c1cccc(N2CCN(CCCCNc3nccc4ccccc34)CC2)c1` is 5.4 nM

Looking up `O=C(/C=C/c1ccccc1)c1ccc(OCCCc2c[nH]cn2)cc1` , I see its Ki listed as 11 nM

Lab note: measured Ki of `O=C(NC(c1ccc(Cl)cc1)c1ccc(Cl)cc1)OCCCc1c[nH]cn1` was 14.5 nM

Reported Ki for O=C(O)C(Cc1cccc2ccccc12)NC(=O)[C@@H](CS)Cc1ccccc1 (stereo partly specified) was 62 nM

Documented Ki of O=[N+]([O-])c1cccc(C(OCCCc2c[nH]cn2)c2ccccc2)c1 (stereo unspecified) : 2.7 nM

`c1ccc(-c2ccc(CCCOCCCc3c[nH]cn3)cc2)cc1` yielded Ki of 27 nM

Field Ki (entry `c1ccc(C(OCCCc2c[nH]cn2)c2ccccc2)cc1` ) reads 25 nM

Input `O=C(NCCCCN1Cc2cccc3cccc(c23)C1)c1ccc2ccccc2c1` . Output Ki: 400 nM

----------
- System: UniProt Q9H3N8
- Assay Summary: Antagonist activity at human H4 receptor expressed in CHO cells co-expressing Galphai2 assessed as inhibition of imetit-induced GTPgamma[35S] binding after 30 mins by microbeta scintillation counting method
- Assay type: cell-based
Cut-off 4000 nM on Ki: below means Met, at or above means Not met.

Query: Criterion: Ki strictly below 4000 nM. Is it met by `c1ccc(C(OCCCc2cnc[nH]2)(c2ccccc2)c2ccccc2)cc1` ?
Reply: Met

Next:
Query: Field: below-cutoff. Rule: recorded Ki strictly less than 4000 nM. Subject: `O=C(CCCc1ccc(I)cc1)OCCCc1cnc[nH]1`
Reply: Met

Query: Is Ki of `COc1cc2c(cc1OC)C(C)=C(C(=O)NCCCCN1CCN(c3ccccc3F)CC1)C2` strictly below 4000 nM?
Reply: Met

Query: Ki strictly < 4000 nM for this molecule? `O=C(Nc1cccc2ccccc12)N1CCC(c2c[nH]cn2)CC1`
Reply: Met

Query: Quick check: does CC(=O)c1ccc(OCc2ccc(CN3CCCC(C)C3)cc2)cc1 (stereo unspecified) have Ki under 4000 nM?
Reply: Not met

Query: Here's an entry: `O=C(c1ccccc1)c1ccc(OCCCCCN2CCCC2)cc1` . Is its Ki below 4000 nM?
Reply: Not met

----------
Listed next: entries and their corresponding pKi.
- System: Voltage-gated inwardly rectifying potassium channel KCNH2 (Homo sapiens, UniProt Q12809)
- Sequence (Q12809 whole entry): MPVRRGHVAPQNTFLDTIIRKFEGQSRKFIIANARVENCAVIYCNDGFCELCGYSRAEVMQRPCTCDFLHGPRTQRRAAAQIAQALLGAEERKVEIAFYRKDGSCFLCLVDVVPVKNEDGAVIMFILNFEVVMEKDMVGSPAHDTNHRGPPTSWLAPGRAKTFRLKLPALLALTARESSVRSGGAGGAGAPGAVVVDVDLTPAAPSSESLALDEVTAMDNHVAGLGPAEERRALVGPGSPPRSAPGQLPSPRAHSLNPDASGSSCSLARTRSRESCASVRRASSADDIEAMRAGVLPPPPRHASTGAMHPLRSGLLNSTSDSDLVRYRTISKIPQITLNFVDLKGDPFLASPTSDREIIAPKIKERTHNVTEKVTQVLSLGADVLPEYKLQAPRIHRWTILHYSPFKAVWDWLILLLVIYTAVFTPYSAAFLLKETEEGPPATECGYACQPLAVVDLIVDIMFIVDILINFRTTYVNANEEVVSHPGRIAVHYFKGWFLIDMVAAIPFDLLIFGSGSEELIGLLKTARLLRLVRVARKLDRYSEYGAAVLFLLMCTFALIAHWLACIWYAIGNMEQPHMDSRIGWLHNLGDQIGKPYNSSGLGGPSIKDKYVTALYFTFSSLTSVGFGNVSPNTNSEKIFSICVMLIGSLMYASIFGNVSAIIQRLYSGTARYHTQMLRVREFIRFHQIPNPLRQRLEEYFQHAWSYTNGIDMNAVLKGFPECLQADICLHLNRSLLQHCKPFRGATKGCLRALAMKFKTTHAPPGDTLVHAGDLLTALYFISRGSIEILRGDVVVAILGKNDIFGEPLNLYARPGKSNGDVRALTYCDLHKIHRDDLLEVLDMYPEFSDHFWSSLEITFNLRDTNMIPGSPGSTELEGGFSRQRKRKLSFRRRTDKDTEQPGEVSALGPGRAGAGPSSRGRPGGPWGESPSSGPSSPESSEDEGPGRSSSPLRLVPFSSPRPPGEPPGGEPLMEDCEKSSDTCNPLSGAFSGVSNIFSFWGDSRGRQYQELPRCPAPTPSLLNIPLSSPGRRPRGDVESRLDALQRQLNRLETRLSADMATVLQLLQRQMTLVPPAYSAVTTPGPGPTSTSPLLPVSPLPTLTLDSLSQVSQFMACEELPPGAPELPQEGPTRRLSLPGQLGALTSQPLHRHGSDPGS
Scale: negative log10 of molar concentration, which is what pKi denotes.

The molecule `Clc1cccc(N2CCN(CCCCNc3nccc4ccccc34)CC2)c1Cl` , tested on Voltage-gated inwardly rectifying potassium channel KCNH2 (Homo sapiens, UniProt Q12809), showed pKi of 7.52

The reported pKi value, Voltage-gated inwardly rectifying potassium channel KCNH2 (Homo sapiens, UniProt Q12809), for `Clc1cccc(N2CCN(CCCCNc3ccc4ccccc4n3)CC2)c1Cl` reads 8.00

Proceeding to the next molecule to report its pKi.
Let me check: `c1ccc(C(OCCCc2c[nH]cn2)c2ccccc2)cc1` , system Voltage-gated inwardly rectifying potassium channel KCNH2 (Homo sapiens, UniProt Q12809), measured pKi is 6.30

----------
The following molecules are listed with their measured Ki values.
- System: Histamine H4 receptor (Homo sapiens, UniProt Q9H3N8)
- Sequence (Q9H3N8 whole entry): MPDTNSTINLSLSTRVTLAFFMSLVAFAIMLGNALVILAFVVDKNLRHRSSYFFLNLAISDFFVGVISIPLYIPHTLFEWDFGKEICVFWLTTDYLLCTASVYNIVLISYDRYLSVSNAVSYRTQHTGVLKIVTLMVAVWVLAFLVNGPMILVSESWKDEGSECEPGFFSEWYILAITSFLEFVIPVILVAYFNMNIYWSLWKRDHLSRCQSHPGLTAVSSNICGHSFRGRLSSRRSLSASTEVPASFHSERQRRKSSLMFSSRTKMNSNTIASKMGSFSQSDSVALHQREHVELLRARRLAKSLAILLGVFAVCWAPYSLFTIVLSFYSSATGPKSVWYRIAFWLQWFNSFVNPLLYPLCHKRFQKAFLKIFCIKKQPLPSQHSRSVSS
- Assay Summary: Antagonist activity at H4 receptor in human SH-SY5Y cells assessed as inhibition of imetit-induced GTPgamma[35S] binding after 30 mins by microbeta scintillation counting method
- Format: cell-based
Report the figure in nM without appending any unit label.

The following molecules have reported results that may help.
Consider `COc1ccccc1N1CCN(CCCCNc2nccc3ccccc23)CC1` . Its measured Ki is 51

Recorded Ki (molecule `CC(C)(CN=C(c1ccccc1O)c1ccccc1O)c1c[nH]cn1` ): 19

***
Measured Ki, `Clc1cccc(N2CCN(CCCCNc3nccc4ccccc34)CC2)c1Cl` : 5.2

----------
This section presents compounds with their documented Ki values.
- System: Histamine H4 receptor (Homo sapiens)
- Assay Summary: Antagonist activity at human H4 receptor expressed in CHO cells co-expressing Galphai2 assessed as inhibition of imetit-induced GTPgamma[35S] binding after 30 mins by microbeta scintillation counting method
- Format: cell-based
Number only, in µM; omit the unit.

Noted for `COc1ccc2c(c1)c(CC(=O)NCCCn1ccnc1)c(C)n2C(=O)c1ccc(Cl)cc1` : its Ki reads 4.2

For reference, reported Ki for `Nc1ccc(NCCc2ccc(OCCCN3CCCCC3)cc2)nc1` stands at 30

----------
Values of Ki reported for D(3) dopamine receptor (Homo sapiens) appear below.
Kindly provide the numeric value in nM only, without the unit symbol.

The molecule identified as `O=C(NCCCCN1CCN(c2cccc(Cl)c2Cl)CC1)c1cncc(Br)c1` registered its Ki at 2.8

Moving on to the next molecule.
Recorded result, `COc1cc2c(cc1OC)C(C)=C(C(=O)NCCCCN1CCN(c3ccccc3F)CC1)C2` , Ki: 0.5

----------
- System: Histamine H4 receptor (Homo sapiens)
- Assay Summary: Antagonist activity at human H4 receptor expressed in CHO cells co-expressing Galphai2 assessed as inhibition of imetit-induced GTPgamma[35S] binding after 30 mins by microbeta scintillation counting method
- Format: cell-based
Outcome Measure: pKi
As a rule, pKi stands for the negative log10 of the concentration, concentration in M.

Here's what some known entries look like.
Entry CC(=O)SCC(Cc1ccc2c(c1)OCO2)C(=O)NCC(=O)OCc1ccccc1 (stereo not drawn) — recorded pKi = 6.67

pKi for `Clc1cccc(N2CCN(CCCCNc3ccc4ccccc4n3)CC2)c1Cl` is 6.90

# input for lookup
What the record says about CCOC(=O)CN1Cc2ccccc2C[C@@H](NC(=O)C(Cc2ccccc2)C(=O)NO)C1=O (stereo partly drawn) : pKi is 5.52

These entries and their values trace back to ChEMBL document CHEMBL4041490.
